- assayed.system: Cytochrome P450 2C9 (Homo sapiens) (UniProt P11712)
- Sequence (P11712 whole entry, looked up): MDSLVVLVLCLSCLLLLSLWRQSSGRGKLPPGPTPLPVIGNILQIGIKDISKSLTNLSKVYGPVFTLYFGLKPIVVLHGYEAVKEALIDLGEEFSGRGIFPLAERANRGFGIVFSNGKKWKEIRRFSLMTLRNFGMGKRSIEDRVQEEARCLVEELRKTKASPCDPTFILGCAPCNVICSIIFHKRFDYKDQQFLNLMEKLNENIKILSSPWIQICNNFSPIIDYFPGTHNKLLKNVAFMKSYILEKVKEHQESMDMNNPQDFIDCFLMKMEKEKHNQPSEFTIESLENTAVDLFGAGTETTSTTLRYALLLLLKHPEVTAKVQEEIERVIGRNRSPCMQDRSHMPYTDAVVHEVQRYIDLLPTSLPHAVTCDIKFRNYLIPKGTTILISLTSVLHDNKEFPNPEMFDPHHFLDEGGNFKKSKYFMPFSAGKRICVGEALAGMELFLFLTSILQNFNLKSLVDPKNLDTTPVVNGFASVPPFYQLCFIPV
- assay.notes: blockers of cytochrome P450 2C9 activity – biochemical, luminescence, ADME assay, primary screen (AID 777)
- test.settings: CYP2C9 Supersomes, luciferin-H conversion, at 5 µM
Out of some 96,000 compounds screened, about 19,000 (20%) were called active.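 How the source made its calls: active means blocking of liver enzyme CYP2C9 beyond about 50% at 5 µM (limit read from the data); inactive means the rest.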 A selection follows.
Answer with one of the outcomes TRUE = active, FALSE = inactive

Here are 2 compounds together with their reported answers.
compound	classification
CCN(CC)CCN1C(=O)C(=O)/C(=C(/O)c2cnn(-c3ccccc3)c2C)C1c1cccs1 (stereo unspecified)	FALSE
CCOC(=O)CN(C(=O)CN1CCOCC1)c1ccc(Br)cc1	FALSE

*Q* Which outcome was assigned to CC(=O)Nc1ccc(S(=O)(=O)N2CCC(N(C)CCC(C)C)CC2)cc1 in this test?
*A* FALSE

*Q* Also c1ccc(-c2nnc3n2NC(c2ccc4c(c2)OCO4)S3)cc1 (stereo unspecified) , if possible.
*A* FALSE

*Q* Also Cc1ccc(NC(=O)c2nc[nH]c2C(=O)N2CCCCC2)c(C(=O)c2ccccc2)c1 , if possible.
*A* FALSE

*Q* Also Cc1ccccc1C(=O)N1CCC(C(=O)Nc2ccc(S(=O)(=O)N(C)C(C)C)cc2)CC1 , if possible.
*A* TRUE

*Q* Also CCN(c1ccccc1)S(=O)(=O)c1ccc(N)cc1 , if possible.
*A* FALSE

*Q* Also O=C(Nn1cnc2ccccc2c1=O)c1ccc(F)cc1Cl , if possible.
*A* FALSE

*Q* Also O=P(c1ccc2c(c1)OCCO2)(N1CCOCC1)N1CCOCC1 , if possible.
*A* FALSE

*Q* Also CCn1nnc(NC(=O)c2cc(Cl)c(OC)c(Cl)c2)n1 , if possible.
*A* FALSE

*Q* Also O=C(COc1ccc2c3c(c(=O)oc2c1)CCC3)NC1CCCCC1 , if possible.
*A* TRUE
